Source listed as paper PMC8071193.

# system-under-test: SGLT2 (Homo sapiens, UniProt P31639)
# Construct: host or cells: TSA201 (Human Embryonal Kidney) cells, lentiviral transduction, puromycin selection
# Sequence (P31639 whole entry): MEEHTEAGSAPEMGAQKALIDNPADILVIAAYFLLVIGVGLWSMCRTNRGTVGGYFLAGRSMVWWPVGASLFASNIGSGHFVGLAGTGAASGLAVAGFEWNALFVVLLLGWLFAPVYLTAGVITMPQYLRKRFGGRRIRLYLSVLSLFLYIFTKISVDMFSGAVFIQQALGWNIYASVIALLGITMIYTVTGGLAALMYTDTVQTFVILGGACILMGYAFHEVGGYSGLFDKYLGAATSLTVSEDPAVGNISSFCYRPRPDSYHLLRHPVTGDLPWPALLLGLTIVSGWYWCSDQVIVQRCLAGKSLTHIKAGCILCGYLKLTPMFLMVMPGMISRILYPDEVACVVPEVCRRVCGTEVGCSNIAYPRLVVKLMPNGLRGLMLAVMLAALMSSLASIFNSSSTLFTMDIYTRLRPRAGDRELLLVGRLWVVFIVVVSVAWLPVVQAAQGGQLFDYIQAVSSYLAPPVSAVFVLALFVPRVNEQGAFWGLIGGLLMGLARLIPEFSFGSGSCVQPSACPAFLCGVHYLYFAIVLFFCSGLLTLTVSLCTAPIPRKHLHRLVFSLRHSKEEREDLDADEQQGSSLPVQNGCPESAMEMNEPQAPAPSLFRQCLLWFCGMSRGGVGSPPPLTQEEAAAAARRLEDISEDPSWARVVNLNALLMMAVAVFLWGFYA
# assay-text: SGLT2 inhibition, 2-NBDG glucose uptake in SGLT2-overexpressing TSA201 cells
# Assay type: cell-based
# condition-set: Table 2; TSA-201 cells; NI: no inhibition at 1000 µM; compounds 1-2 used as controls for in-house assay
metric: IC50

{"columns": ["molecule", "readout-value"],
 "data": [
  ["OC[C@H]1O[C@@H](c2nnc(Cc3ccc(Cl)cc3)o2)[C@H](O)[C@@H](O)[C@@H]1O [13c]", "> 1000 µM"],
  ["OC[C@H]1O[C@@H](c2noc(Cc3ccc(Cl)cc3)n2)[C@H](O)[C@@H](O)[C@@H]1O [10c]", "> 1000 µM"],
  ["COc1ccc(Cc2nc([C@@H]3O[C@H](CO)[C@@H](O)[C@H](O)[C@H]3O)no2)cc1 [10b]", "> 1000 µM"]
]}
